meta.source: paper PMC5247395

Field: Blood. Provide a value for each of the molecules that follow.
tested on: PC-3 PIP/flu tumor-bearing mice; assay: Biodistribution in PC-3 PIP/flu tumor-bearing mice; conditions: 15 min p.i., i.v.
Answers are plain numbers, in % IA/g.

Would you please look over these solved cases?
# Molecule, System Tested, Units Text, Blood
records = [
    ("O=C([O-])CN(CCN(CC(=O)[O-])Cc1cc(CCC(=O)NCCCCCC(=O)NCCCC[C@H](NC(=O)N[C@@H](CCC(=O)O)C(=O)O)C(=O)O)ccc1[O-])Cc1cc(CCC(=O)O)ccc1[O-].[68Ga+3] [^68Ga-PSMA-11]", "PC-3 PIP/flu tumor-bearing mice", "% IA/g", 5.05),
    ("O=C([O-])CN1CCN(CC(=O)[O-])CCN(CC(=O)NCC2CCC(C(=O)NC(Cc3ccc4ccccc4c3)C(=O)NCCCCC(NC(=O)NC(CCC(=O)O)C(=O)O)C(=O)O)CC2)CCN(CC(=O)[O-])CC1.[44Sc+3] (stereo not shown) [^44Sc-PSMA-617]", "PC-3 PIP/flu tumor-bearing mice", "% IA/g", 6.76),
    ("O=C([O-])CN1CCN(CC(=O)[O-])CCN(CC(=O)NCC2CCC(C(=O)NC(Cc3ccc4ccccc4c3)C(=O)NCCCCC(NC(=O)NC(CCC(=O)O)C(=O)O)C(=O)O)CC2)CCN(CC(=O)[O-])CC1.[68Ga+3] (stereo not shown) [^68Ga-PSMA-617]", "PC-3 PIP/flu tumor-bearing mice", "% IA/g", 6.88),
]

# context switch: different molecule, same Blood
Reported Blood for O=C([O-])CN1CCN(CC(=O)[O-])CCN(CC(=O)NCC2CCC(C(=O)N[C@@H](Cc3ccc4ccccc4c3)C(=O)NCCCC[C@H](NC(=O)N[C@@H](CCC(=O)O)C(=O)O)C(=O)O)CC2)CCN(CC(=O)[O-])CC1.[177Lu+3] (stereo partly shown) [^177Lu-PSMA-617] : what is it?
7.28

* * *

test system: PC-3 PIP/flu tumor-bearing mice; test: Biodistribution in PC-3 PIP/flu tumor-bearing mice; conditions: 2 h p.i., i.v.
Measurement Label: Salivary glands (% IA/g)
Answers are plain numbers, in % IA/g.

Would you please look over these solved cases?
# Compound, System Tested, Salivary glands (% IA/g)
rows = [
    ("O=C([O-])CN(CCN(CC(=O)[O-])Cc1cc(CCC(=O)NCCCCCC(=O)NCCCC[C@H](NC(=O)N[C@@H](CCC(=O)O)C(=O)O)C(=O)O)ccc1[O-])Cc1cc(CCC(=O)O)ccc1[O-].[68Ga+3] [^68Ga-PSMA-11]", "PC-3 PIP/flu tumor-bearing mice", 0.39),
    ("O=C([O-])CN1CCN(CC(=O)[O-])CCN(CC(=O)NCC2CCC(C(=O)N[C@@H](Cc3ccc4ccccc4c3)C(=O)NCCCC[C@H](NC(=O)N[C@@H](CCC(=O)O)C(=O)O)C(=O)O)CC2)CCN(CC(=O)[O-])CC1.[177Lu+3] (stereo partly shown) [^177Lu-PSMA-617]", "PC-3 PIP/flu tumor-bearing mice", 0.10),
    ("O=C([O-])CN1CCN(CC(=O)[O-])CCN(CC(=O)NCC2CCC(C(=O)NC(Cc3ccc4ccccc4c3)C(=O)NCCCCC(NC(=O)NC(CCC(=O)O)C(=O)O)C(=O)O)CC2)CCN(CC(=O)[O-])CC1.[44Sc+3] (stereo not shown) [^44Sc-PSMA-617]", "PC-3 PIP/flu tumor-bearing mice", 0.36),
]

# context switch: different compound, same Salivary glands
Reported Salivary glands for O=C([O-])CN1CCN(CC(=O)[O-])CCN(CC(=O)NCC2CCC(C(=O)NC(Cc3ccc4ccccc4c3)C(=O)NCCCCC(NC(=O)NC(CCC(=O)O)C(=O)O)C(=O)O)CC2)CCN(CC(=O)[O-])CC1.[68Ga+3] (stereo not shown) [^68Ga-PSMA-617] : what is it?
0.14

* * *

test system: PC-3 PIP/flu tumor-bearing mice; test: Biodistribution in PC-3 PIP/flu tumor-bearing mice; details: 30 min p.i., i.v.
Field: Salivary glands. Provide a value for each of the compounds that follow.
Give bare numbers, in % IA/g.

Would you please look over these solved cases?
# Compound, System Tested, Units Text, Salivary glands
data = [
    ("O=C([O-])CN1CCN(CC(=O)[O-])CCN(CC(=O)NCC2CCC(C(=O)N[C@@H](Cc3ccc4ccccc4c3)C(=O)NCCCC[C@H](NC(=O)N[C@@H](CCC(=O)O)C(=O)O)C(=O)O)CC2)CCN(CC(=O)[O-])CC1.[177Lu+3] (stereo partly shown) [^177Lu-PSMA-617]", "PC-3 PIP/flu tumor-bearing mice", "% IA/g", 1.01),
    ("O=C([O-])CN1CCN(CC(=O)[O-])CCN(CC(=O)NCC2CCC(C(=O)NC(Cc3ccc4ccccc4c3)C(=O)NCCCCC(NC(=O)NC(CCC(=O)O)C(=O)O)C(=O)O)CC2)CCN(CC(=O)[O-])CC1.[68Ga+3] (stereo not shown) [^68Ga-PSMA-617]", "PC-3 PIP/flu tumor-bearing mice", "% IA/g", 1.06),
]

Below is a list of compounds. For each, state its recorded Salivary glands.
1. O=C([O-])CN1CCN(CC(=O)[O-])CCN(CC(=O)NCC2CCC(C(=O)NC(Cc3ccc4ccccc4c3)C(=O)NCCCCC(NC(=O)NC(CCC(=O)O)C(=O)O)C(=O)O)CC2)CCN(CC(=O)[O-])CC1.[44Sc+3] (stereo not shown) [^44Sc-PSMA-617]
2. O=C([O-])CN(CCN(CC(=O)[O-])Cc1cc(CCC(=O)NCCCCCC(=O)NCCCC[C@H](NC(=O)N[C@@H](CCC(=O)O)C(=O)O)C(=O)O)ccc1[O-])Cc1cc(CCC(=O)O)ccc1[O-].[68Ga+3] [^68Ga-PSMA-11]

1: 1.21; 2: 1.59

* * *

system: PC-3 PIP/flu tumor-bearing mice; assay: Biodistribution in PC-3 PIP/flu tumor-bearing mice; conditions: 2 h p.i., i.v.
Measurement Label: Spleen (% IA/g)
Give bare numbers, in % IA/g.

Would you please look over these solved cases?
# Molecule, System Tested, Units Text, Spleen
measured = [
    ("O=C([O-])CN1CCN(CC(=O)[O-])CCN(CC(=O)NCC2CCC(C(=O)N[C@@H](Cc3ccc4ccccc4c3)C(=O)NCCCC[C@H](NC(=O)N[C@@H](CCC(=O)O)C(=O)O)C(=O)O)CC2)CCN(CC(=O)[O-])CC1.[177Lu+3] (stereo partly shown) [^177Lu-PSMA-617]", "PC-3 PIP/flu tumor-bearing mice", "% IA/g", 0.21),
    ("O=C([O-])CN1CCN(CC(=O)[O-])CCN(CC(=O)NCC2CCC(C(=O)NC(Cc3ccc4ccccc4c3)C(=O)NCCCCC(NC(=O)NC(CCC(=O)O)C(=O)O)C(=O)O)CC2)CCN(CC(=O)[O-])CC1.[68Ga+3] (stereo not shown) [^68Ga-PSMA-617]", "PC-3 PIP/flu tumor-bearing mice", "% IA/g", 0.91),
    ("O=C([O-])CN1CCN(CC(=O)[O-])CCN(CC(=O)NCC2CCC(C(=O)NC(Cc3ccc4ccccc4c3)C(=O)NCCCCC(NC(=O)NC(CCC(=O)O)C(=O)O)C(=O)O)CC2)CCN(CC(=O)[O-])CC1.[44Sc+3] (stereo not shown) [^44Sc-PSMA-617]", "PC-3 PIP/flu tumor-bearing mice", "% IA/g", 0.81),
]

Reported Spleen for O=C([O-])CN(CCN(CC(=O)[O-])Cc1cc(CCC(=O)NCCCCCC(=O)NCCCC[C@H](NC(=O)N[C@@H](CCC(=O)O)C(=O)O)C(=O)O)ccc1[O-])Cc1cc(CCC(=O)O)ccc1[O-].[68Ga+3] [^68Ga-PSMA-11] : what is it?
2.18

* * *

tested on: PC-3 PIP/flu tumor-bearing mice; experiment: Biodistribution in PC-3 PIP/flu tumor-bearing mice; settings: 15 min p.i., i.v.
Measurement Label: Heart (% IA/g)
Give bare numbers, in % IA/g.

# Compound, Measurement Label, Numeric Value
data = [
    ("O=C([O-])CN(CCN(CC(=O)[O-])Cc1cc(CCC(=O)NCCCCCC(=O)NCCCC[C@H](NC(=O)N[C@@H](CCC(=O)O)C(=O)O)C(=O)O)ccc1[O-])Cc1cc(CCC(=O)O)ccc1[O-].[68Ga+3] [^68Ga-PSMA-11]", "Heart", 2.45),
    ("O=C([O-])CN1CCN(CC(=O)[O-])CCN(CC(=O)NCC2CCC(C(=O)NC(Cc3ccc4ccccc4c3)C(=O)NCCCCC(NC(=O)NC(CCC(=O)O)C(=O)O)C(=O)O)CC2)CCN(CC(=O)[O-])CC1.[68Ga+3] (stereo not shown) [^68Ga-PSMA-617]", "Heart", 2.61),
    ("O=C([O-])CN1CCN(CC(=O)[O-])CCN(CC(=O)NCC2CCC(C(=O)NC(Cc3ccc4ccccc4c3)C(=O)NCCCCC(NC(=O)NC(CCC(=O)O)C(=O)O)C(=O)O)CC2)CCN(CC(=O)[O-])CC1.[44Sc+3] (stereo not shown) [^44Sc-PSMA-617]", "Heart", 2.79),
]

# context switch: different compound, same Heart
Hello, I am looking for reported Heart with PC-3 PIP/flu tumor-bearing mice for O=C([O-])CN1CCN(CC(=O)[O-])CCN(CC(=O)NCC2CCC(C(=O)N[C@@H](Cc3ccc4ccccc4c3)C(=O)NCCCC[C@H](NC(=O)N[C@@H](CCC(=O)O)C(=O)O)C(=O)O)CC2)CCN(CC(=O)[O-])CC1.[177Lu+3] (stereo partly shown) [^177Lu-PSMA-617] . Could you help?
2.87
